molecular target: Delta-type opioid receptor (Homo sapiens); test: Agonist activity at human DOR assessed as inhibition of forskolin-stimulated cAMP accumulation after 30 mins by cell based TR-FRET assay
Sequence (P41143 whole entry): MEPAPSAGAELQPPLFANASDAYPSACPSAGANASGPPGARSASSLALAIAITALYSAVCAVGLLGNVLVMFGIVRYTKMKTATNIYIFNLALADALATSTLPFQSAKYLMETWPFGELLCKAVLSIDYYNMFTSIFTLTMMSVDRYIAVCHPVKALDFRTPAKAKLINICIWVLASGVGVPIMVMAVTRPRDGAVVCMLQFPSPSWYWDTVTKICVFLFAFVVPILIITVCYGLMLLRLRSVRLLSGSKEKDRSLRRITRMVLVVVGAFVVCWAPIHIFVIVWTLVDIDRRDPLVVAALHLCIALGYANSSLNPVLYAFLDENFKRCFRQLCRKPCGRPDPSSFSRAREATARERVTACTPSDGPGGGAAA
# label = fulfilled if EC50 < 10 µM else not fulfilled

| record smiles | assay target | category label |
| --- | --- | --- |
| COc1cc(C)c2c3c1O[C@H]1[C@H](F)[C@H](C)C[C@H]4[C@@H](C2)N(C)CC[C@@]341 | Delta-type opioid receptor (Homo sapiens) | fulfilled |
| COc1ccc2c3c1O[C@H]1[C@@H](O)[C@H](OC)C[C@H]4[C@@H](C2)N(C)CC[C@@]341 | Delta-type opioid receptor (Homo sapiens) | not fulfilled |
| COc1ccc2c3c1O[C@H]1[C@@H](O)[C@H](O)C[C@H]4[C@@H](C2)N(C)CC[C@@]341 | Delta-type opioid receptor (Homo sapiens) | not fulfilled |
| COc1ccc2c3c1O[C@H]1[C@@H](O)[C@H](C)C[C@H]4[C@@H](C2)N(C)CC[C@@]341 | Delta-type opioid receptor (Homo sapiens) | fulfilled |
| COc1cc(C)c2c3c1O[C@H]1[C@@H](O)[C@H](C)C[C@H]4[C@@H](C2)N(C)CC[C@@]341 | Delta-type opioid receptor (Homo sapiens) | not fulfilled |
| COc1ccc2c3c1O[C@H]1[C@@H](OC)[C@H](C)C[C@H]4[C@@H](C2)N(C)CC[C@@]341 | Delta-type opioid receptor (Homo sapiens) | fulfilled |
| COc1ccc2c3c1O[C@H]1[C@@H](O)[C@H](F)C[C@H]4[C@@H](C2)N(C)CC[C@@]341 | Delta-type opioid receptor (Homo sapiens) | not fulfilled |
| C[C@@H]1C[C@H]2[C@H]3Cc4ccc(O)c5c4[C@@]2(CCN3C)[C@@H](O5)[C@H]1O | Delta-type opioid receptor (Homo sapiens) | fulfilled |

====

compounds and their reported inhibition
target: Mu-type opioid receptor (Mus musculus) (UniProt P42866); experiment: Activation of mouse MOR assessed as inhibition of forskolin-stimulated cAMP accumulation after 30 mins by cell based TR-FRET assay relative to DAMGO; type: functional
Sequence (P42866 whole entry): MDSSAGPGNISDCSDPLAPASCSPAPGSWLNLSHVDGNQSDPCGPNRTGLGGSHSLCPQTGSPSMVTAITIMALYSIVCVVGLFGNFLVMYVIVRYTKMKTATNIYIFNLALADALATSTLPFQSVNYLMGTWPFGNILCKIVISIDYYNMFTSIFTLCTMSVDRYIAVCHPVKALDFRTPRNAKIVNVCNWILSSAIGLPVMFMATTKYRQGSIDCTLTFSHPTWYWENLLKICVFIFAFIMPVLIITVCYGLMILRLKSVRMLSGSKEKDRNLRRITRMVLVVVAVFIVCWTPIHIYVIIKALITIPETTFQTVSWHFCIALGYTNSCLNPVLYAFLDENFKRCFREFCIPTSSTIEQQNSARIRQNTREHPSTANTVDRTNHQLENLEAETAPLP
quantity measured: inhibition (%)

| record smiles | assay target | reported value |
| --- | --- | --- |
| COc1cc(C)c2c3c1O[C@H]1[C@@H](O)[C@H](C)C[C@H]4[C@@H](C2)N(C)CC[C@@]341 | Mu-type opioid receptor (Mus musculus) (UniProt P42866) | 77 |
| COc1ccc2c3c1O[C@H]1[C@@H](OC)[C@H](C)C[C@H]4[C@@H](C2)N(C)CC[C@@]341 | Mu-type opioid receptor (Mus musculus) (UniProt P42866) | 92 |
| COc1ccc2c3c1O[C@H]1[C@@H](O)[C@H](C)C[C@H]4[C@@H](C2)N(C)CC[C@@]341 | Mu-type opioid receptor (Mus musculus) (UniProt P42866) | 97 |
| C[C@@H]1C[C@H]2[C@H]3Cc4ccc(O)c5c4[C@@]2(CCN3C)[C@@H](O5)[C@H]1O | Mu-type opioid receptor (Mus musculus) (UniProt P42866) | 99 |
| COc1ccc2c3c1O[C@H]1[C@@H](O)[C@H](OC)C[C@H]4[C@@H](C2)N(C)CC[C@@]341 | Mu-type opioid receptor (Mus musculus) (UniProt P42866) | 86 |
| COc1cc(C)c2c3c1O[C@H]1[C@H](F)[C@H](C)C[C@H]4[C@@H](C2)N(C)CC[C@@]341 | Mu-type opioid receptor (Mus musculus) (UniProt P42866) | 78 |
| COc1ccc2c3c1O[C@H]1C(=O)CC[C@@]4(O)[C@@H](C2)N(C)CC[C@]314 | Mu-type opioid receptor (Mus musculus) (UniProt P42866) | 97 |
| COc1ccc2c3c1O[C@H]1[C@@H](O)[C@H](O)C[C@H]4[C@@H](C2)N(C)CC[C@@]341 | Mu-type opioid receptor (Mus musculus) (UniProt P42866) | 96 |
| COc1ccc2c3c1O[C@H]1[C@@H](O)[C@H](F)C[C@H]4[C@@H](C2)N(C)CC[C@@]341 | Mu-type opioid receptor (Mus musculus) (UniProt P42866) | 79 |
| CN1CC[C@]23c4c5ccc(O)c4O[C@H]2[C@@H](O)C=C[C@H]3[C@H]1C5 | Mu-type opioid receptor (Mus musculus) (UniProt P42866) | 97 |
